Biological target: T1, PCSK9 (UniProt Q8NBP7 31-692, limits assumed)
T1 construct: Printed only as 'PCSK9' in Embodiments 5.4 and 6; also called Proprotein Convertase Subtilisin/Kexin Type 9; PCSK9 solution
T1 sequence (Q8NBP7 31-692 limits assumed): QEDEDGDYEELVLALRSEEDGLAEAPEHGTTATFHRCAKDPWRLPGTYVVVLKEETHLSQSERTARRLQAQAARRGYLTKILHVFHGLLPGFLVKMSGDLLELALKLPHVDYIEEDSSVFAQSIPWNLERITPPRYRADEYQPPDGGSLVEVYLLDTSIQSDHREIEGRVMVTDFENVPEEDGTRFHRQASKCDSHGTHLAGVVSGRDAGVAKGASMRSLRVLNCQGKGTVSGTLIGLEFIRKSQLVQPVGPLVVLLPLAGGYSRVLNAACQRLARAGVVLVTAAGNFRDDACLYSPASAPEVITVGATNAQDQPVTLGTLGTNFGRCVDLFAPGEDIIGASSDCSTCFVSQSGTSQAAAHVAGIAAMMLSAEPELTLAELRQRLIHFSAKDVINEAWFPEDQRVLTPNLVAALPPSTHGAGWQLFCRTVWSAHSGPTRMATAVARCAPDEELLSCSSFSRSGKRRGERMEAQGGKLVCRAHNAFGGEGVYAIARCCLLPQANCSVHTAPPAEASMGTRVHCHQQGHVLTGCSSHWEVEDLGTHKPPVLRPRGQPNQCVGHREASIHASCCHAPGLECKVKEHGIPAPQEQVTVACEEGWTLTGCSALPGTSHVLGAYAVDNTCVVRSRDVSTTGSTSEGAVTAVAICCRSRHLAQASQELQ
Experiment: SPR BIAcore X100, antibody captured by goat anti-human IgG on CM5, PCSK9 as analyte
Below, each of the binders is paired with its reported kon value.
Response body: numeric value in M⁻¹ s⁻¹, unit text excluded.

{"columns": ["Binder", "kon / M⁻¹ s⁻¹"],
 "data": [
  ["DFSK9-16 complete antibody (antibody, V domains shown) VH: QVQLVQSGAEVKKPGASVKVSCKASGYTVTSYGISWVRQAPGQGLEWMGWVSFYQGNTNYAQKLQGRGTMTTDPSTSTAYMELRSLRSDDTAVYYCARGFGMDRWGQGTTVTVSS VL: DIQMTQSPSSLSASVGDRVTITCRASQNINSWLNWYQQKPGKAPKLLIYGASSRQSGVPSRFSGSGSGTDFTLTISSLQPEDFATYYCQQWFDVPTTFGQGTKVEIK", "1.22e+06"]
]}

Now for the binder whose kon we want.
Given the entry DFSK9-17 complete antibody (antibody, V domains shown) VH: QVQLVQSGAEVKKPGASVKVSCKASGYTVTSYGISWVRQAPGQGLEWMGWVSFYNGNSNYAQKLQGRGTMTTDPSTSTAYMELRSLRSDDTAVYYCARGYSLDVWGQGTTVTVSS VL: DIQMTQSPSSLSASVGDRVTITCRASQNINNWLNWYQQKPGKAPKLLIYGASTRPTGVPSRFSGSGSGTDFTLTISSLQPEDFATYYCQQWDDTPNTFGQGTKVEIK , report its measured kon.
1.18e+06

The measured values listed here are drawn from patent US20210277146A1.
